target: human TLR8 (Homo sapiens (Human)); test: TLR8 inhibition reporter assay (HEK-Blue cells, SEAP reporter, R848 stimulation); conditions: read-out: TLR8 IC50, HEK-Blue cells overexpressing human TLR8, R848 15.9 μM
Sequence (Q9NR97 27-1041): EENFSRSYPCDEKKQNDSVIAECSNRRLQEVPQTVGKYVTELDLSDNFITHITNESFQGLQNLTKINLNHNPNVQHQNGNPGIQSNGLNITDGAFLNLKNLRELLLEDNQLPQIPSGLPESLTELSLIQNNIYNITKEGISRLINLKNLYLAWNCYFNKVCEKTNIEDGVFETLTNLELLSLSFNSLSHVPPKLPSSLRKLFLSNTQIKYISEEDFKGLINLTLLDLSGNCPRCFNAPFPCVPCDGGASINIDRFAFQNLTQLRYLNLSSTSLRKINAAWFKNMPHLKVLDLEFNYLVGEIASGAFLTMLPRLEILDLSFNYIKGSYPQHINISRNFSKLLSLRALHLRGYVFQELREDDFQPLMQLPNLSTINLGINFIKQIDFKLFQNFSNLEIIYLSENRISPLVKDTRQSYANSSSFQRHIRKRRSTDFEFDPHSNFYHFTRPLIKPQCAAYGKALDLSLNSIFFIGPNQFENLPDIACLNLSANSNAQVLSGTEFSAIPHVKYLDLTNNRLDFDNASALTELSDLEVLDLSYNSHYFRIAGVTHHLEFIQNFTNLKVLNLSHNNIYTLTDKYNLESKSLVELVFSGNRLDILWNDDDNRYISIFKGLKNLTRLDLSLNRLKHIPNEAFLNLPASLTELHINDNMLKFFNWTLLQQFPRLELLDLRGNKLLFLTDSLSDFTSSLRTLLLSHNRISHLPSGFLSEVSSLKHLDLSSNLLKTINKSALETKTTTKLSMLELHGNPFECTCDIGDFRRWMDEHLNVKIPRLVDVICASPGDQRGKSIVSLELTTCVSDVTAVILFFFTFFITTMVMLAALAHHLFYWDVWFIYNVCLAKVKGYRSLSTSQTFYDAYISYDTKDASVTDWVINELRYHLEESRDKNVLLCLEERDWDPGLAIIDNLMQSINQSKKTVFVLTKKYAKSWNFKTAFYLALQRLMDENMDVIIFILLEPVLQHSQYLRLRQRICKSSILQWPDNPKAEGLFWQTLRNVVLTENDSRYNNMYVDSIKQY
pIC50: −log10 of the molar value.
Below, each entry is listed alongside its reported pIC50.
Result type: pIC50

> print(dat)
                                   molecule  result.type  endpoint.result
1  CC(=O)Nc1ccc(S(=O)(=O)N2CCC(c3ccc4[nH]c(-c5ccnc(C)c5)c(C(C)C)c4c3)CC2)cc1        pIC50             6.95
2  Cc1cc(-c2[nH]c3ccc(C4CCN(CC(=O)NCC5CCCO5)CC4)cc3c2C(C)C)cc(C)n1 (stereo not shown)        pIC50             7.97
3  Cc1cc(-c2[nH]c3ccc(C4CCN(C(=O)C5CC(=O)N(C)C5)CC4)cc3c2C(C)C)cc(F)n1 (stereo not shown)        pIC50             6.81
4  Cc1cc(-c2[nH]c3ccc(C4CCN(C(CF)CF)CC4)cc3c2C(C)C)cc(C)n1        pIC50             7.68
5  Cc1cc(-c2[nH]c3ccc(C4CCN(C5CCN(C(C)C)CC5)CC4)cc3c2C(C)C)cc(C)n1        pIC50             8.09
6  CC(C)c1c(-c2ccnc(CN)c2)[nH]c2ccc(C3CCNCC3)cc12        pIC50             6.73
7  Cc1cc(-c2[nH]c3ccc(C4CCN(C(=O)CN(C)CCC#N)CC4)cc3c2C(C)C)c(F)cn1        pIC50             7.70

----------
Below, each entry is listed alongside its reported IC50.
biological target: human TLR9 (Homo sapiens (Human), UniProt Q9NR96); test: TLR9 inhibition reporter assay (HEK-Blue cells, SEAP reporter, ODN2006 stimulation); conditions: read-out: TLR9 IC50, HEK-Blue cells, ODN2006 5 nM;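 further: compounds tested over 0.05 nM to 50 µM, 22 h incubation, inhibition taken as SEAP signal drop from agonist plus DMSO wells toward a known inhibitor control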
Sequence (Q9NR96 26-1032): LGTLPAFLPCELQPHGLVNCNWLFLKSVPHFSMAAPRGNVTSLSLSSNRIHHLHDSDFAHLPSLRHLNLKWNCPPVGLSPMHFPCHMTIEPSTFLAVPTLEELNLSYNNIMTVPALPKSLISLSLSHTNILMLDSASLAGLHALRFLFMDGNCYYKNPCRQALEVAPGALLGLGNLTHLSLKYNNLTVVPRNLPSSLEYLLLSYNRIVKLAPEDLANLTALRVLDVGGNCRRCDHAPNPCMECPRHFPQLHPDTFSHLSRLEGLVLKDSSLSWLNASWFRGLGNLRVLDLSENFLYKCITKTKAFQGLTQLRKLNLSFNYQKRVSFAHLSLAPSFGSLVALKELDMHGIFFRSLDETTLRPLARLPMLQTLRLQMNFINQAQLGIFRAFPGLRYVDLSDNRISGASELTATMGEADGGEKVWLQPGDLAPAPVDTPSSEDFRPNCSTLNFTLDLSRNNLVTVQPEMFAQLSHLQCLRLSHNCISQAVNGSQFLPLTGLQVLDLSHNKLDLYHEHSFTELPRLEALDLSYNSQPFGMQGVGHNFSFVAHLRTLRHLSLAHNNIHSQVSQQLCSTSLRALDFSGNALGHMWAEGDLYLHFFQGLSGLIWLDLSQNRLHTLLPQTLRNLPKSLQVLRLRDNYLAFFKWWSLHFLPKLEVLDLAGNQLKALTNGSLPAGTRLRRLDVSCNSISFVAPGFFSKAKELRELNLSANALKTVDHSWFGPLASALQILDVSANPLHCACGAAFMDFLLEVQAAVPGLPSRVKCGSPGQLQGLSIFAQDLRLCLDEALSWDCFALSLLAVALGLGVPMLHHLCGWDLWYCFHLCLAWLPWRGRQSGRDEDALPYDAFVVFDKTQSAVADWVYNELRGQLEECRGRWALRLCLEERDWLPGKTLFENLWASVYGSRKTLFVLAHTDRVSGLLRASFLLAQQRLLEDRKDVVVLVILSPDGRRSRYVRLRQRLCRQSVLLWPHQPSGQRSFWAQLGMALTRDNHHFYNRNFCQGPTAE
Result type: IC50

> print(dat)
                                   molecule  result.type  endpoint.result
1  Cc1cc(-c2[nH]c3ccc(C4CCN(C(CF)CF)CC4)cc3c2C(C)C)ccn1         IC50          1030 nM
2  CC(C)c1c(-c2ccnc(N)c2)[nH]c2ccc(C3CCN(Cc4cnc[nH]4)CC3)cc12         IC50           177 nM
3  Cc1cc(-c2[nH]c3cc(C(F)(F)F)c(C4CCN(CC5CCNC5)CC4)cc3c2C(C)C)ccn1 (centres unmarked)         IC50            96 nM
4  CCc1c(-c2ccnc(C)c2)[nH]c2ccc(C3CCN(CC(=O)O)CC3)cc12         IC50         46700 nM
5  Cc1cc(-c2[nH]c3ccc(C4CCN(C(C)CF)CC4)cc3c2C(C)C)ccn1 (centres unmarked)         IC50           917 nM
6  Cc1cc(-c2[nH]c3ccc(C4CCN(Cc5cnc[nH]5)CC4)cc3c2C(C)C)c(N)cn1         IC50           400 nM
7  Cc1cc(-c2[nH]c3ccc(C4CCN(C(C)CF)CC4)cc3c2C(C)C)c(C)cn1 (centres unmarked)         IC50          1440 nM
8  CC(=O)N1CCC(c2cc3c(C(C)C)c(-c4cc(C)nc(C)c4)[nH]c3cc2F)CC1         IC50          3070 nM

----------
Below, each entry is listed alongside its reported pIC50.
biological target: human TLR8 (Homo sapiens (Human)); test: TLR8 inhibition reporter assay (HEK-Blue cells, SEAP reporter, R848 stimulation); details: read-out: TLR8 IC50, HEK-Blue cells overexpressing human TLR8, R848 15.9 μM;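 further: compounds tested from 0.05 nM to 50 µM, 22 h at 37 °C, SEAP measured with HEK-Blue Detection, inhibition relative to agonist plus DMSO versus a known inhibitor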
pIC50: −log10 of the molar value.
Result type: pIC50

> print(dat)
                                   compound                       study.target  result.type  endpoint.result
1  Cc1cc(-c2[nH]c3ccc(C4CCN(S(=O)(=O)c5ccccc5)CC4)cc3c2C(C)C)ccn1  human TLR8 (Homo sapiens (Human))        pIC50             5.98
2  Cc1cc(-c2[nH]c3ccc(C4CCN(Cc5ccncc5)CC4)cc3c2C(C)C)cc(C)n1  human TLR8 (Homo sapiens (Human))        pIC50             8.38
3  Cc1cc(-c2[nH]c3ccc(C4CCN(C(=O)CN(C)CC(C)(C)O)CC4)cc3c2C(C)C)cc(C)n1  human TLR8 (Homo sapiens (Human))        pIC50             7.28
4  Cc1cc(-c2[nH]c3ccc(C4CCN(C(=O)C5CCOC5)CC4)cc3c2C(C)C)cc(C)n1 (stereo not shown)  human TLR8 (Homo sapiens (Human))        pIC50             7.06

----------
molecular target: human TLR7 (Homo sapiens (Human), UniProt Q9NYK1); assay: TLR7 inhibition reporter assay (HEK-Blue cells, SEAP reporter, gardiquimod stimulation); format: cell-based; details: HEK-Blue cells overexpressing human TLR7, gardiquimod 7.5 μM
Sequence (Q9NYK1 27-1049): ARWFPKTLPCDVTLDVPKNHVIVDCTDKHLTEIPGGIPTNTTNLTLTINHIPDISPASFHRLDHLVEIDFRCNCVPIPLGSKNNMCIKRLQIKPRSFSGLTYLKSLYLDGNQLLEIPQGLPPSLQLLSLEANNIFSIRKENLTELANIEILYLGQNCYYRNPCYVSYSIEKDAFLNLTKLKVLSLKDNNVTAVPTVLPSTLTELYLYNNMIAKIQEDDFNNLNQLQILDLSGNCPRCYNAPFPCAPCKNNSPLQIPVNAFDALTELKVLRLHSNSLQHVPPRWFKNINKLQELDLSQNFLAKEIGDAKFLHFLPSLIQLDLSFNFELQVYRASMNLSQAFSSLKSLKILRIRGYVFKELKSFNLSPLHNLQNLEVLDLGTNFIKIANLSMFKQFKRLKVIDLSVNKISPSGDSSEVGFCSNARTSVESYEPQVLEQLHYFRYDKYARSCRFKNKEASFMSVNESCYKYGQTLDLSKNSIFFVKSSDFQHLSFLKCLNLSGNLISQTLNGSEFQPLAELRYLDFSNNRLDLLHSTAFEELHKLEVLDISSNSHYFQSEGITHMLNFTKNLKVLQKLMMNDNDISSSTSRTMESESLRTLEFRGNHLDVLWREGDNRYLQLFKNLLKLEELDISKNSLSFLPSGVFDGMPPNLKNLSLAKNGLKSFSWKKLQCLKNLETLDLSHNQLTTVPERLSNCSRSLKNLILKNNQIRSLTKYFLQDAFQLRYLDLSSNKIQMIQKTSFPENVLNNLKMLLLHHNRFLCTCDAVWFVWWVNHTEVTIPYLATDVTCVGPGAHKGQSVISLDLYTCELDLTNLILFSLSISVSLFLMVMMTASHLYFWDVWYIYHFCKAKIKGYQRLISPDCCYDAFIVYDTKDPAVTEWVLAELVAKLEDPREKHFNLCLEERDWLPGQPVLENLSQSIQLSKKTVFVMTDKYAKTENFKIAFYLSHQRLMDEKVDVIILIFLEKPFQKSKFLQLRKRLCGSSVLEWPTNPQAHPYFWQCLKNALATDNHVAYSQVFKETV
Result type: IC50 (nM)

> print(dat)
                                    compound  result.type  endpoint.result
 1  CC(C)c1c(-c2ccnc(C(=O)NCC(F)(F)F)c2)[nH]c2ccc(C3CCNCC3)cc12         IC50             6070
 2  CNC(=O)CN1CCC(c2ccc3[nH]c(-c4cc(C)nc(C)c4)c(C(C)C)c3c2)CC1         IC50                2
 3  Cc1nccc(-c2[nH]c3ccc(C4CCN(C5CCOCC5)CC4)cc3c2C(C)C)c1C         IC50              144
 4  Cc1cc(-c2[nH]c3ccc(C4CCNCC4)cc3c2C(C)C)cc(C2CC2)n1         IC50             10.2
 5  Cc1cc(-c2[nH]c3ccc(C4CCN(C(=O)C5(N)CC5)CC4)cc3c2C(C)C)cc(C)n1         IC50                6
 6  Cc1cc(-c2[nH]c3ccc(C4CCN(C(=O)CNC5(C)CC5)CC4)cc3c2C(C)C)cc(C)n1         IC50                4
 7  CNCCN1CCC(c2ccc3[nH]c(-c4ccncc4)c(C)c3c2)CC1         IC50              545
 8  Cc1cc(-c2[nH]c3ccc(C4CCN(Cc5ccn(C)n5)CC4)cc3c2C(C)C)cc(C)n1         IC50              3.6
 9  Cc1cc(-c2[nH]c3ccc(C4CCN(C(=O)Cc5cc(C)nn5C)CC4)cc3c2C(C)C)cc(C)n1         IC50             23.3
10  CCc1c(-c2cc(C)nc(C)c2)[nH]c2ccc(C3CCNCC3)cc12         IC50              4.7
11  Cc1cc(-c2[nH]c3ccc(C4CCN(C(=O)CC5CC(=O)NC(=O)N5)CC4)cc3c2C(C)C)cc(C)n1 (stereo not shown)         IC50             18.1
12  CNC(C)(C)C(=O)N1CCC(c2ccc3[nH]c(-c4cc(C)nc(C)c4)c(C(C)C)c3c2)CC1         IC50              1.7
13  Cc1cc(-c2[nH]c3ccc(C4CCN(Cc5nnc(C6CC6)o5)CC4)cc3c2C(C)C)c(F)cn1         IC50             54.2
14  CNC(=O)CN1CCC(c2ccc3[nH]c(-c4cc(C)nc(C)c4F)c(C(C)C)c3c2)CC1         IC50              1.3
15  Cc1cc(-c2[nH]c3ccc(C4CCN(C(=O)CN(CCO)C(C)C)CC4)cc3c2C(C)C)cc(C)n1         IC50              7.9
16  CCc1c(-c2ccnc(OC)c2)[nH]c2ccc(C3CCN(CCNC)CC3)cc12         IC50              330
17  CCc1cc(-c2[nH]c3ccc(C4CCNCC4)cc3c2C(C)C)cc(OC)n1         IC50             33.4
18  Cc1cc(-c2[nH]c3ccc(C4CCN(C(=O)CNCCC(C)O)CC4)cc3c2C(C)C)cc(C)n1 (stereo not shown)         IC50             10.3
19  Cc1cc(-c2[nH]c3ccc(C4CCN(C(=O)CN5CCOCC5)CC4)cc3c2C(C)C)cc(C)n1         IC50              5.3
20  Cc1cc(-c2[nH]c3ccc(C4CCN(C(=O)C5CCN(C(C)C)CC5)CC4)cc3c2C(C)C)cc(C)n1         IC50              2.7
21  Cc1cc(-c2[nH]c3ccc(C4CCN(C(=O)CN5CCC[C@@H]5CO)CC4)cc3c2C(C)C)cc(C)n1         IC50              4.7
22  CCc1cc(-c2[nH]c3ccc(C4CCNCC4)cc3c2C(C)C)c(F)cn1         IC50             10.6
23  CCc1c(-c2ccnc(-c3nnc[nH]3)c2)[nH]c2ccc(C3CCNCC3)cc12         IC50             1230
24  Cc1cc(-c2[nH]c3ccc(C4CCN(CC(=O)N(C)[C@H]5CCOC5)CC4)cc3c2C(C)C)cc(C)n1         IC50             17.7
25  CNCCN1CCC(c2ccc3[nH]c(-c4ccnc(Cl)c4)c(C)c3c2)CC1         IC50              472
26  COc1cc(-c2[nH]c3ccc(C4CCNCC4)cc3c2C(C)C)cc(C)n1         IC50              1.5
27  Cc1cc(-c2[nH]c3ccc(C4CCN(C(=O)C5(C(F)(F)F)CC5)CC4)cc3c2C(C)C)ccn1         IC50             77.7
28  Cc1cc(-c2[nH]c3ccc(C4CCN(CC(=O)N(C)C)CC4)cc3c2C(C)C)ccn1         IC50               13
29  CCc1c(-c2ccnc(C)c2)[nH]c2ccc(C3CCN(C(=O)C4CCNCC4c4ccccc4)CC3)cc12 (stereo not shown)         IC50              531
30  Cc1cc(-c2[nH]c3ccc(C4CCN(S(C)(=O)=O)CC4)cc3c2C(C)C)ccn1         IC50               39
31  Cc1cc(-c2[nH]c3ccc(C4CCN(C(=O)CNCCC(C)(C)C)CC4)cc3c2C(C)C)cc(C)n1         IC50             17.4
